B1: library; numbered along this chain (parent)
chain: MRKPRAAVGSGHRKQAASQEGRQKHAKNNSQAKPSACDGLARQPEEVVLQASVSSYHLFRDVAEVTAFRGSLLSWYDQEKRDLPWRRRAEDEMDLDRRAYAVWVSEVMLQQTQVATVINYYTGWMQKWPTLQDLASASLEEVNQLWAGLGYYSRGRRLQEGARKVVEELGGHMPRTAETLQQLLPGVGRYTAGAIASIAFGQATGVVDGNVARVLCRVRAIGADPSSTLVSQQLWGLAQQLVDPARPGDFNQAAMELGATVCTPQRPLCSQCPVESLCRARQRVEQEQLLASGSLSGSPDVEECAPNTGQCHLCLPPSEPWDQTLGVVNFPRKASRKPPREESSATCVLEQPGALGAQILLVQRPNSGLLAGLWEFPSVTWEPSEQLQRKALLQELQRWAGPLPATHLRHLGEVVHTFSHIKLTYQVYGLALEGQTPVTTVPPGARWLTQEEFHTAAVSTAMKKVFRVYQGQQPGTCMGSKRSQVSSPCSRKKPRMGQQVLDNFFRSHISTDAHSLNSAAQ

variants of: B1; assay: 8OG:A repair function score (normalized; synonymous = 0, nonsense = -1) (normalized log-likelihood score); higher = more repair activity (WT-like); settings: with 8OG:A DNA repair reporter (GFP) in HEK-293 MUTYH KO cells;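 also: cells sorted at 72 h after reporter transfection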
Heads up, the class ranges for 8OG:A repair function score are bucket A = under -0.2, bucket B = from -0.2 up to -0.04, bucket C = -0.04 and over

Take a look at these entries with their results.
{"VARIANT KEY": "T66F", "CLASSIFICATION": "bucket C"}
{"VARIANT KEY": "A135C", "CLASSIFICATION": "bucket A"}

Dear colleague, I would appreciate it if you could identify the bin for P267N and reply at your convenience.
bucket A

Dear colleague, I would appreciate it if you could identify the bin for L158H and reply at your convenience.
bucket A
